Give log10(IC50) for every item shown.
System: P388
procedure-text: Cytotoxicity of spisulosine analogs, P388 (after Berjeron et al)
Assay type: cell-based
experimental-conditions: P388; methodology after Berjeron et al; NA=not active; read-out: Cytotoxicity IC50 P388
Hello, just confirming the data are log10 of IC50 with units of nM.

// known answers, use as guide
- molecule: "CCCCCCCCCCCCCCCC(=O)[C@@H](C)N"
  observed: 2.19
- molecule: "CCCCCCCCCCCCCC[C@@H](O)[C@H](C)N [drawing 101]"
  observed: 2.21
- molecule: "CCCCCCCCCCCCCCC[C@@H](O)[C@@H](N)CF [drawing 111]"
  observed: 1.52
- molecule: "CCCCCCCCCCCCCCC[C@@H](O)[C@H](C)N [drawing 36, spisulosine-285, reference compound]"
  observed: 1.54

Batch request: log10(IC50) for each of the following molecules.
1. CCCCCCCCCCCCCCCC(=O)[C@@H](N)CC [drawing 106]
2. CCCCCCCCCCCCCCC[C@@H](O)[C@H](C)N(C)C
3. CCCCCCCCCCCCCCCC(=O)[C@H](C)N [drawing 102]
4. CCCCCCCCCCCCCCC[C@@H](O)[C@H](C)NC
5. CCCCCCCCCCCCCCCCCC(=O)[C@H](C)N [drawing 105]
6. CCCCCCCCCCCCCCCCC(=O)[C@H](C)N [drawing 104]

(A)
1.48
2.50
1.50
2.52
2.16
2.18

(Q) Endpoint output: log10(IC50) of CCCCCCCCCCCCCCCC(=NO)C(C)N (centres unmarked) . Value?
(A) 2.53

###

Tested on: MEL28
procedure-text: Cytotoxicity of spisulosine analogs, MEL28 (after Berjeron et al)
Type: cell-based
experimental-conditions: MEL28; methodology after Berjeron et al; NA=not active; read-out: Cytotoxicity IC50 MEL28
So I've got a bunch of molecules here, and I need their IC50 values.
Numbers only, in nM.

- molecule: "CCCCCCCCCCCCCCCCCC(=O)[C@H](C)N [drawing 105]"
  IC50, nM: 287
- molecule: "CCCCCCCCCCCCCC[C@@H](O)[C@H](C)N [drawing 101]"
  IC50, nM: 327
- molecule: "CCCCCCCCCCCCCCC[C@@H](O)[C@@H](N)CF [drawing 111]"
  IC50, nM: 329
- molecule: "CCCCCCCCCCCCCCCC(=O)[C@H](C)N [drawing 102]"
  IC50, nM: 156
- molecule: "CCCCCCCCCCCCCCC[C@@H](O)[C@H](C)N [drawing 36, spisulosine-285, reference compound]"
  IC50, nM: 175

(Q) IC50 for CCCCCCCCCCCCCCC[C@@H](O)[C@H](C)N(C)C ?
(A) 319

###

Could you please report measured pIC50 for the items listed next?
System: P388
procedure-text: Cytotoxicity of spisulosine analogs, P388 (after Berjeron et al)
Assay type: cell-based
experimental-conditions: Mus musculus, P388, P388; methodology after Berjeron et al; NA=not active; read-out: Cytotoxicity IC50 P388
One number for each entry, as −log10 of the molar value.

Consider the following illustrative entries.
- molecule: "CCCCCCCCCCCCC[C@@H](O)[C@H](C)N [drawing 41, (2S,3R)-2-Amino-3-hexadecanol]"
  pIC50: 6.41
- molecule: "CCCCCCCCCCCCCCCCCCC[C@@H](O)[C@H](C)N [(2S,3R)-2-Amino-3-docosanol]"
  pIC50: 6.53
- molecule: "CCCCCCCCCCCCCC[C@@H](O)[C@H](C)N [drawing 44, (2S,3R)-2-Amino-3-heptadecanol]"
  pIC50: 7.43
- molecule: "CCCCCCCCCCCC[C@@H](O)[C@H](C)N [(2S,3R)-2-Amino-3-pentadecanol]"
  pIC50: 6.39
- molecule: "CCCCCCCCCCCCCCC[C@@H](O)[C@@H](N)CC [drawing 58, (3S,4R)-3-Amino-4-nonadecanol]"
  pIC50: 7.48

Record pIC50 for all entries; do not skip any.
1. CCCCCCCCCCC[C@@H](O)[C@H](C)N [(2S,3R)-2-Amino-3-tetradecanol]
2. CCCCCCCCCCCCCCC[C@H](O)[C@H](C)N [(2S,3S)-2-Amino-3-octadecanol]

(A)
1. 6.36
2. 6.46

For each of the items listed, what is its pIC50?
1. CCCCCCCCCCCCCCCCCC[C@@H](O)[C@H](C)N [drawing 52, (2S,3R)-2-Amino-3-heneicosanol]
2. CCCCCCCCCCCCCCC[C@@H](O)[C@H](C)N [drawing 46]
3. CCCCCCCCCCCCCCCCCCCC[C@@H](O)[C@H](C)N [(2S,3R)-2-Amino-3-tricosanol]

(A)
6.82
7.56
5.85
